# target.or.test.system: Solute carrier family 22 member 12 (Homo sapiens, UniProt Q96S37)
# Sequence (Q96S37 whole entry): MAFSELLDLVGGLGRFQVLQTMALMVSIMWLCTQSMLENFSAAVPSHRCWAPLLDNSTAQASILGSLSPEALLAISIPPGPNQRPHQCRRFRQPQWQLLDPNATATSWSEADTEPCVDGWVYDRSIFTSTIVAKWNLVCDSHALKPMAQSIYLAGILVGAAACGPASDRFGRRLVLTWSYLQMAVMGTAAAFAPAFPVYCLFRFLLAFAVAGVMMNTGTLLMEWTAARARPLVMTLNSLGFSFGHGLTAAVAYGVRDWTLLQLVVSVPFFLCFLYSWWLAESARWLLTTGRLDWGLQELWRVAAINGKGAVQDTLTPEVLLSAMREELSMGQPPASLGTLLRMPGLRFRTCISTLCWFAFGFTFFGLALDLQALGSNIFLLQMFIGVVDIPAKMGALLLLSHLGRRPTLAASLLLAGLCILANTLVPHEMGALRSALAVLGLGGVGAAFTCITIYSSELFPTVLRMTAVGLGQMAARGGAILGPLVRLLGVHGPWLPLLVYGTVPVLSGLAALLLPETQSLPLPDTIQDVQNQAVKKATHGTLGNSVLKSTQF
# method.description: 150 microliter of cell lysate (100 mM of NaOH) was added in each well. Cell plate was placed on a vibrating plate and vibrated for 10 min at a speed of 600 rpm such that the cells were completely lysed. The cell plate was put in a centrifuge and spun for 5 min at a speed of 1000 rpm, then 45 microliter of supernatant was sucked out from each well and transferred to 96-well plate (Isoplate-96 Microplate from PerkinElmer).
reported.endpoint: IC50

Given the entry N#Cc1ccc(-c2ccccc2S(=O)(=O)CC2(CC(=O)O)CC2)cc1 , what IC50 was observed with Solute carrier family 22 member 12 (Homo sapiens, UniProt Q96S37)?
> 1000 nM
